# target: T1, MUC1 60-mer peptide NH2-(…)3-COOH (biotinylated in the ELISAs and selections)
# T1 construct: also called biotinylated MUC1 60-mer
# T1 sequence (peptide, as listed by the source): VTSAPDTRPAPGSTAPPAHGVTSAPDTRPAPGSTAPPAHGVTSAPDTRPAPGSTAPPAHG
# assay_explanation: ELISA, soluble Fab, biotinylated MUC1 60-mer; relative signal
measurement_name: binding result

>  <binder>
10F9 (Fab, V domains shown, PH1 Fab variant) VH: QVQLVQSGGGLVQPGGSLRLSCAASGFTFRSNAMGWVRQAPGKGLEWVSGISGSGGSTYYADSVKGRFTISRDNSKNTLYLQMNSLRAEDTAVYYCAKHTGGGVWNPIGHWGQGTLVTVSS VL: EIVLTQSPLSLPVTPGEPASISCRSSQSLLHSNGYTYLDWYLQKPGQSPQLLIYSGSHRASGVPDRFSGSVSGTDFTLRISRVEAEDVGVYYCMQGLQSPFTFGPGTKVDIKR

>  <measurement_name>
binding result

>  <measurement>
binds

$$$$
>  <binder>
11D4 (Fab, V domains shown, PH1 Fab variant) VH: QVQLVQSGGGLVQPGGSLRLSCAASGFTFRSNAMGWVRQAPGKGLEWVSGISGSGGSTYYADSVKGRFTISRDNSKNTLYLQMNSLRAEDTAVYYCAKHTGGGVWDPMASWGQGTLVTVSS VL: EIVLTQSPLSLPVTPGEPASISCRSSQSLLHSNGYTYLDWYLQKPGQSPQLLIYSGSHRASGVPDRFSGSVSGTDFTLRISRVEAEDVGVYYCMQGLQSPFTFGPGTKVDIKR

>  <measurement_name>
binding result

>  <measurement>
binds

$$$$
>  <binder>
6B5 (Fab, V domains shown, PH1 Fab variant) VH: QVQLVQSGGGLVQPGGSLRLSCAASGFTFRSNAMGWVRQAPGKGLEWVSGISGSGGSTYYADSVKGRFTISRDNSKNTLYLQMNSLRAEDTAVYYCAKHTGGGVWDPIAYWGQGTLVTVSS VL: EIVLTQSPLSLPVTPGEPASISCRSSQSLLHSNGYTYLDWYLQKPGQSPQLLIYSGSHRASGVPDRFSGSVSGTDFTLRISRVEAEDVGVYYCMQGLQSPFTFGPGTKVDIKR

>  <measurement_name>
binding result

>  <measurement>
binds

$$$$

Values compiled from patent US20020146750A1.
